- test.system: αβγ hENaC (Homo sapiens, UniProt P37088+P51168+P51170)
- Construct: GFP; host or cells: HEK293T
- Sequence (P37088 whole entry): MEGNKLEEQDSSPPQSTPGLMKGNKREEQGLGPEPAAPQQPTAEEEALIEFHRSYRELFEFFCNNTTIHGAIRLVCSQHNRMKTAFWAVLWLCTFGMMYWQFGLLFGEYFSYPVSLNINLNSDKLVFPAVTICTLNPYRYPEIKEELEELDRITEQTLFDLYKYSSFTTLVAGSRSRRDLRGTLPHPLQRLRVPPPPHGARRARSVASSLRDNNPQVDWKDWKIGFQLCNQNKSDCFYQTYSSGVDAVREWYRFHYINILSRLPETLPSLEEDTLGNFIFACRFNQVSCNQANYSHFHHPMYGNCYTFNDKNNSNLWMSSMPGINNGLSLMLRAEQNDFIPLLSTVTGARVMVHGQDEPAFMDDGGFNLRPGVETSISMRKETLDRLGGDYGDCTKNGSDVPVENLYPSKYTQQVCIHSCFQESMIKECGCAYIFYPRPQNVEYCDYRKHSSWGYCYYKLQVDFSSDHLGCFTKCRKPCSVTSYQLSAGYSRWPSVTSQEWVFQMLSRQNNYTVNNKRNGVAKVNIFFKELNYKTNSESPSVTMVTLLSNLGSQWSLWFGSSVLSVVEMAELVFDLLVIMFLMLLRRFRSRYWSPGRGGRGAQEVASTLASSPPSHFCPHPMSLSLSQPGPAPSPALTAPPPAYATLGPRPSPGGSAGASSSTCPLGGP
- Sequence (P51168 whole entry): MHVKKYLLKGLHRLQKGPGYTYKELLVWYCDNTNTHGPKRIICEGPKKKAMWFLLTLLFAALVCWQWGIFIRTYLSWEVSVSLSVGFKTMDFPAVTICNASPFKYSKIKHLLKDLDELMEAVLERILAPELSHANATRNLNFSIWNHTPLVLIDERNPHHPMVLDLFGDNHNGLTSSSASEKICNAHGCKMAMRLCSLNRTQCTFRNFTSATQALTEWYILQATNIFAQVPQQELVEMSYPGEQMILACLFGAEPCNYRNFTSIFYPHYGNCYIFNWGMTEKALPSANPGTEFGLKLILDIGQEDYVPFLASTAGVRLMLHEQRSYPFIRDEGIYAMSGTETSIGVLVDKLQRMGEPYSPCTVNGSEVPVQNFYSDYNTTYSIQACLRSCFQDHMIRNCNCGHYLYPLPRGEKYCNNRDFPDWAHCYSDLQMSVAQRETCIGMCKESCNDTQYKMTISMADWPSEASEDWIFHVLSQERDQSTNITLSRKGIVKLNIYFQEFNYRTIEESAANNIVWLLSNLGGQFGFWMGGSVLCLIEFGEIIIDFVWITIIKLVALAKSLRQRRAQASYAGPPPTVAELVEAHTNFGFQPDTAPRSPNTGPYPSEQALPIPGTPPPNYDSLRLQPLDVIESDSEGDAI
- Sequence (P51170 whole entry): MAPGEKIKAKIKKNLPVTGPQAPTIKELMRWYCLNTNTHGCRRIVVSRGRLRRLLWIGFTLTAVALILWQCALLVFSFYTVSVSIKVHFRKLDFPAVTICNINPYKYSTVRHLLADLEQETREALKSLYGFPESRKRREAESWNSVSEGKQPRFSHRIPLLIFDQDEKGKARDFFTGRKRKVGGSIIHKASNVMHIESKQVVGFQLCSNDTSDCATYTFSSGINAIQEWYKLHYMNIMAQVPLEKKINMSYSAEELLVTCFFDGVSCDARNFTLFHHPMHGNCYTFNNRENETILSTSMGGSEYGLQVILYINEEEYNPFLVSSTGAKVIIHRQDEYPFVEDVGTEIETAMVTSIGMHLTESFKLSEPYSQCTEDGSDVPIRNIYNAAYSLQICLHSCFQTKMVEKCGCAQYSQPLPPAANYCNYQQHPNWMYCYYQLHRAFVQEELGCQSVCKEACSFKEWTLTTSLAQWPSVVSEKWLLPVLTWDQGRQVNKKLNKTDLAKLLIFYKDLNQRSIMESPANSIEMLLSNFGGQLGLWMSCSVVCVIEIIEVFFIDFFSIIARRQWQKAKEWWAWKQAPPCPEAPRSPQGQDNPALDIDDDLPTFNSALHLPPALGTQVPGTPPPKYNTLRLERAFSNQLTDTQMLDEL
- assay.name: Membrane potential assay (FMP dye) on αβγ hENaC-expressing cells
- Assay type: cell-based
- condition.details: 0.03-10 µM; read-out: EC50, depolarization of membrane potential in hENaC expressing cells
attribute.measured: EC50 (nM)
The answer is to be given in nM; state only the numeric part.

Enquiry: Returns the measured EC50 for the input molecule. Input: Cc1cccc2[nH]cc(SC(CC(C)C)C(=O)NCCO)c12 (stereo not shown) [S3969]
Return: 1260
